test: Cytotoxicity against human UW228-2 cells assessed as inhibition of cell survival at 25 ug/ml after 24 hrs by MTT assay; format: functional; conditions: UW228-2, 24 h
Categorize each record by its inhibition at 25 µg/mL using low: < 20%; intermediate: ≥ 20% and < 60%; high: ≥ 60%

{"columns": ["smiles.structure", "label.value"],
 "data": [
  ["COc1ccc2c(c1)/C(=N/n1c(-c3cccs3)nc3ccccc3c1=O)C(=O)N2", "intermediate"],
  ["Cc1ccc(-c2nc3ccccc3c(=O)n2/N=C2\\C(=O)Nc3ccc([N+](=O)[O-])cc32)cc1", "intermediate"],
  ["Cc1ccc(C(=O)Nc2ccccc2C(=O)N/N=C2\\C(=O)Nc3ccc(C)cc32)cc1", "intermediate"],
  ["Cc1ccc(C(=O)Nc2ccccc2C(=O)N/N=C2\\C(=O)Nc3ccc(Cl)cc32)cc1", "high"],
  ["O=C1Nc2ccccc2/C1=N/NC(=O)c1ccccc1NC(=O)c1ccc([N+](=O)[O-])cc1", "intermediate"],
  ["O=C1Nc2ccccc2/C1=N/n1c(-c2cccs2)nc2ccccc2c1=O", "low"],
  ["O=C1Nc2ccc([N+](=O)[O-])cc2/C1=N/NC(=O)c1ccccc1NC(=O)c1ccc([N+](=O)[O-])cc1", "low"],
  ["COc1ccc2c(c1)/C(=N/NC(=O)c1ccccc1NC(=O)c1ccc(C)cc1)C(=O)N2", "high"],
  ["Cc1ccc2c(c1)/C(=N/n1c(-c3cccs3)nc3ccccc3c1=O)C(=O)N2", "intermediate"],
  ["Cc1ccc(C(=O)Nc2ccccc2C(=O)N/N=C2\\C(=O)Nc3ccc([N+](=O)[O-])cc32)cc1", "intermediate"],
  ["COc1ccc2c(c1)/C(=N/NC(=O)c1ccccc1NC(=O)c1ccc([N+](=O)[O-])cc1)C(=O)N2", "intermediate"],
  ["Cc1ccc(C(=O)Nc2ccccc2C(=O)N/N=C2\\C(=O)Nc3ccccc32)cc1", "high"],
  ["Cc1ccc(-c2nc3ccccc3c(=O)n2/N=C2\\C(=O)Nc3ccccc32)cc1", "low"],
  ["O=C1Nc2ccc([N+](=O)[O-])cc2/C1=N/n1c(-c2cccs2)nc2ccccc2c1=O", "low"],
  ["Cc1ccc(-c2nc3ccccc3c(=O)n2/N=C2\\C(=O)Nc3ccc(C)cc32)cc1", "low"],
  ["Cc1ccc(-c2nc3ccccc3c(=O)n2/N=C2\\C(=O)Nc3ccc(Cl)cc32)cc1", "high"]
]}
